- subject_of_test: KCa3.1 (Homo sapiens, UniProt O15554)
- Sequence (O15554 whole entry): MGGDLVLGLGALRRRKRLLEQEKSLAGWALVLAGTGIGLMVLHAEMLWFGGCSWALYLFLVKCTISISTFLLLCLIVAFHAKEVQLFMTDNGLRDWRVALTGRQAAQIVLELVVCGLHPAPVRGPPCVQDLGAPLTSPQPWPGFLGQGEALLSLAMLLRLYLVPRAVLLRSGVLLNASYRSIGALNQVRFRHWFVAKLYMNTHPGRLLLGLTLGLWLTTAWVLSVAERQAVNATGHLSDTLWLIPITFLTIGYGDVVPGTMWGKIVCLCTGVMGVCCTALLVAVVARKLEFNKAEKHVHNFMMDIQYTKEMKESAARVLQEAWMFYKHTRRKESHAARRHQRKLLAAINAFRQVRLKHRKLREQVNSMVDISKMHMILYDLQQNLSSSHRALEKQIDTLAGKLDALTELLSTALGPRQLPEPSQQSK
- protocol_description: whole-cell patch clamp (Hill fit of concentration-response)
property_label: pKd
The value called pKd is obtained by taking minus log10 of the concentration in mol/L.

// returns reported pKd for input TFINHKCKSSSECLPACKAAIGRASGKCINSTCKCYY [Cm39 (α-KTx 4.8)]
7.24
